# assayed_target: cloned 5-HT1A receptors stably expressed in transfected HeLa cells (HA7) (Homo sapiens, UniProt P08908)
# Sequence (P08908 whole entry): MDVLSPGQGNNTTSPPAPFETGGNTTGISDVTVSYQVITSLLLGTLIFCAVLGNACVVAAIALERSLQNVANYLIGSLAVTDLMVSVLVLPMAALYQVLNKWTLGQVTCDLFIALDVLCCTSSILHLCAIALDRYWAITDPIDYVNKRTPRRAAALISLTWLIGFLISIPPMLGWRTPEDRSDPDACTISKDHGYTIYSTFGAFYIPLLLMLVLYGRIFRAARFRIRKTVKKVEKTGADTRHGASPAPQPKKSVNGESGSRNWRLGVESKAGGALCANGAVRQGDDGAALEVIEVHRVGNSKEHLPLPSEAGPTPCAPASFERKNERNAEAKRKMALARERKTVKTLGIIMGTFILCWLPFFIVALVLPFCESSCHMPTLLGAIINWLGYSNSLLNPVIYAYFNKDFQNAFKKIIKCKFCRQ
# measurement_protocol: 5-HT1A antagonistic activity: antagonism of 5-HT induced inhibition of forskolin induced cAMP accumulation
# condition_description: HeLa cells (HA7) expressing cloned 5-HT1A receptors
# Procedure: The assay was performed as a modification of the method described by Pauwels, P. J. et al, Biochem. Pharmacol. 1993, 45, 375.
// NB: equality with 300 nM counts as 0 (no); only IC50 strictly below is 1 (yes)

c1cc2c(c(N3CCN(CCc4coc5ccccc45)CC3)c1)OCCO2 [Compound 3f] = 1 (yes)
C1=CC(CCCCN2CCN(c3cccc4c3OCCO4)CC2)c2ccccc21 (centres unmarked) [Compound 1a] = 1 (yes)
Cc1ccc(Cl)c2occ(CCCN3CCN(c4cccc5c4OCCO5)CC3)c12 [Compound 4a] = 1 (yes)
Cc1cccc2occ(CCCN3CCN(c4cccc5c4OCCO5)CC3)c12 [Compound 5a] = 0 (no)

## Task For this molecule, is IC50 lower than 300 nM? Fc1ccc2occ(CCN3CCN(c4cccc5c4OCCO5)CC3)c2c1 [Compound 2a]
## Result 1 (yes)

----------
# assayed_target: human 5-HT1A receptors (Homo sapiens)
# Construct: expressed in transfected cells; host or cells: HeLa cells (HA7)
# Sequence (P08908 whole entry): as the sequence (P08908 whole entry) above
# measurement_protocol: Inhibition of 3H-5-CT binding to human 5-HT1A receptors
# condition_description: cloned human 5-HT1A receptors in HeLa cells (HA7) homogenate, 15 minutes at 37° C., pH 7.7
experimental_endpoint: pIC50
// pIC50: -log10(molar conc.)

Here are 2 compounds together with their reported answers.
C1=CC(CCCCN2CCN(c3cccc4c3OCCO4)CC2)c2ccccc21 (stereo not drawn) = 8.77
Cc1cccc2occ(CCCN3CCN(c4cccc5c4OCCO5)CC3)c12 = 8.54

Turning now to a further compound:
## Task Any idea what its pIC50 is? The compound is Cc1cccc2occ(CCN3CCN(c4cccc5c4OCCO5)CC3)c12
## Result 7.72

----------
# assayed_target: cloned 5-HT1A receptors stably expressed in transfected HeLa cells (HA7) (Homo sapiens, UniProt P08908)
# measurement_protocol: 5-HT1A antagonistic activity: antagonism of 5-HT induced inhibition of forskolin induced cAMP accumulation
# condition_description: HeLa cells (HA7) expressing cloned 5-HT1A receptors
pIC50: −log10 of the molar value.
Threshold check on pIC50: at or above 6 gives T, strictly below gives F.

// below: answered molecules
Cc1cccc2occ(CCN3CCN(c4cccc5c4OCCO5)CC3)c12 [Compound 3c] = F
Fc1ccc2c(CCCN3CCN(c4cccc5c4OCCO5)CC3)noc2c1 [Compound 3b] = T

## Task Tell me whether pIC50 is at least 6 here: Clc1ccc2occ(CCN3CCN(c4cccc5c4OCCO5)CC3)c2c1 [Compound 3d]
## Result T

----------
Consider the following compounds and their measured pIC50 readings.
# assayed_target: 3H-5-HT uptake into whole rat brain synaptosomes (serotonin reuptake) (Rattus norvegicus)
# Construct: from tissue; host or cells: whole rat brain synaptosomes
# Sequence (P31652 whole entry): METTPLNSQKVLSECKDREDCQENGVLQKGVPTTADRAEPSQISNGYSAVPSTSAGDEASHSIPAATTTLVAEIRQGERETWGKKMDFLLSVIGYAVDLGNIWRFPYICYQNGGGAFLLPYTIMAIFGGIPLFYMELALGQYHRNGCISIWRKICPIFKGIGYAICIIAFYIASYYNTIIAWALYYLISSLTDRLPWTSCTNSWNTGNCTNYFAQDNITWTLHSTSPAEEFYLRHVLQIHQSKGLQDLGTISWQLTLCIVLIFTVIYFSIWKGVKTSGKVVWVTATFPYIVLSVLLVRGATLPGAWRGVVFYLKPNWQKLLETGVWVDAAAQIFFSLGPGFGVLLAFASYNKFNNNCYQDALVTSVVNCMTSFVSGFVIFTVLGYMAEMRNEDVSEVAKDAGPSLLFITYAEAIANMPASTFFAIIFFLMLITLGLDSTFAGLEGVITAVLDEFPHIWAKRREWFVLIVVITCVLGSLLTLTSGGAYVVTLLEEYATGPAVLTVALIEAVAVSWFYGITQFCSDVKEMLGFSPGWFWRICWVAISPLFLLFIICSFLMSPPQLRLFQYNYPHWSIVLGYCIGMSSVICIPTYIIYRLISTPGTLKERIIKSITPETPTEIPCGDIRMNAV
# measurement_protocol: Inhibition of 3H-5-HT uptake into rat brain synaptosomes
# Format: biochemical
# condition_description: 3H-5-HT accumulation into whole rat brain synaptosomes, in vitro; read-out: Inhibition of serotonin reuptake IC50
// pIC50: -log10(molar conc.)

Here are 3 compounds together with their reported answers.
Fc1ccc2c(CCCN3CCN(c4cccc5c4OCCO5)CC3)noc2c1 = 6.62
Clc1ccc2occ(CCN3CC=C(c4cccc5c4OCC5)CC3)c2c1 = 6.80
Fc1ccc2occ(CCN3CCN(c4cccc5ccoc45)CC3)c2c1 = 6.77

## Task Any idea what its pIC50 is? The compound is Cc1cccc2occ(CCCN3CCN(c4cccc5c4OCCO5)CC3)c12
## Result 7.82
